We begin with IC50 values for Histone-lysine N-methyltransferase 2A (Homo sapiens, UniProt Q03164), as collected from the published literature.

Short answer on Histone-lysine N-methyltransferase 2A (Homo sapiens, UniProt Q03164) for Cl.Nc1cccc2c(S(=O)(=O)NCc3ccccc3)cccc12 , IC50: > 20 µM

Short answer on Histone-lysine N-methyltransferase 2A (Homo sapiens, UniProt Q03164) for C=CC(=O)N1CCC(C(=O)NS(=O)(=O)c2ccccc2)(c2ccccc2)CC1 , IC50: 46 µM

Short answer on Histone-lysine N-methyltransferase 2A (Homo sapiens, UniProt Q03164) for COc1cc2nc(N3CCCC3)nc(NCCCCCN3CCCC3)c2cc1OC , IC50: > 100 µM

----------
We begin with IC50 values for Histone-lysine N-methyltransferase 2A (Homo sapiens), as collected from the published literature.

Short answer on Histone-lysine N-methyltransferase 2A (Homo sapiens) for Nc1ncnc2c1ncn2[C@@H]1O[C@H](CSCC[C@H](N)C(=O)O)[C@@H](O)[C@H]1O , IC50: 2.3 µM

Short answer on Histone-lysine N-methyltransferase 2A (Homo sapiens) for OC(CNCCc1c[nH]c2ccccc12)Cn1c2ccccc2c2ccccc21 (racemic) , IC50: > 150 µM

Short answer on Histone-lysine N-methyltransferase 2A (Homo sapiens) for C=CC(=O)N1CCC(c2ccc(OCC)cc2)(c2nnn[nH]2)CC1 , IC50: 22 µM

Short answer on Histone-lysine N-methyltransferase 2A (Homo sapiens) for C=CC(=O)N1CCC(C(=O)NS(=O)(=O)c2ccc(Cl)cc2)(c2ccccc2)CC1 , IC50: 153 µM

Short answer on Histone-lysine N-methyltransferase 2A (Homo sapiens) for C=CC(=O)N1CCC(C(=O)NS(=O)(=O)c2ccc(C)cc2)(c2ccccc2)CC1 , IC50: 136 µM

Short answer on Histone-lysine N-methyltransferase 2A (Homo sapiens) for C=CC(=O)N1CCC(C(=O)NS(=O)(=O)CC)(c2ccccc2)CC1 , IC50: 114 µM

Short answer on Histone-lysine N-methyltransferase 2A (Homo sapiens) for C=CC(=O)N1CCC(C(=O)NS(=O)(=O)c2ccc(F)cc2)(c2ccccc2)CC1 , IC50: 74 µM

Short answer on Histone-lysine N-methyltransferase 2A (Homo sapiens) for C=CC(=O)N1CCC(C(=O)NS(=O)(=O)c2ccc(OC)cc2)(c2ccccc2)CC1 , IC50: 76 µM

Short answer on Histone-lysine N-methyltransferase 2A (Homo sapiens) for Cc1c(F)c(N)cc(C(=O)Nc2cc(-c3ccc(C(=O)NCCCN)cc3)ccc2N2CCN(C)CC2)c1Cl , IC50: 0.19 µM
